- Test system: SNG-M (Endometrial Carcinoma);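 note: after 72 h of two-drug dosing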
- assay method text: Bliss excess, mean over the matrix (fraction); higher = more synergy
Please use 1 whenever Bliss excess is not below 0.007, and 0 whenever it is.

{"columns": ["molecule", "classification"],
 "data": [
  ["CN(CCO)CC[C@H](CSc1ccccc1)Nc1ccc(S(=O)(=O)NC(=O)c2ccc(N3CCC([C@@H](O)c4ccccc4-c4ccc(Cl)cc4)CC3)cc2)cc1S(=O)(=O)C(F)(F)F [AZD4320] + CC(=O)O[C@H]1C(=O)[C@@]2(C)[C@H]([C@H](OC(=O)c3ccccc3)[C@]3(O)C[C@H](OC(=O)[C@H](O)[C@@H](NC(=O)c4ccccc4)c4ccccc4)C(C)=C1C3(C)C)[C@]1(OC(C)=O)CO[C@@H]1C[C@@H]2O [Paclitaxel] (first compound max 1 µM, 7x7, partner max 3 µM)", 1],
  ["CC(=O)c1c(C)c2cnc(Nc3ccc(N4CCNCC4)cn3)nc2n(C2CCCC2)c1=O [Palbociclib] + CC1(C)CCC(CN2CCN(c3ccc(C(=O)NS(=O)(=O)c4ccc(NCC5CCOCC5)c([N+](=O)[O-])c4)c(Oc4cnc5[nH]ccc5c4)c3)CC2)=C(c2ccc(Cl)cc2)C1 [Venetoclax] (first compound max 10 µM, 7x7, partner max 1 µM)", 0],
  ["Cc1cc2ncnn2cc1Nc1ncc2c(n1)n(C1CCOCC1)c(=O)n2C [AZD7648] + CN(C)CCCOc1ccc(-c2ccc3ncc4c(c3c2)n(C2CCOCC2)c(=O)n4C)cn1 [AZD0156] (first compound max 10 µM, 7x7, partner max 1 µM)", 1],
  ["CN(CCO)CC[C@H](CSc1ccccc1)Nc1ccc(S(=O)(=O)NC(=O)c2ccc(N3CCC([C@@H](O)c4ccccc4-c4ccc(Cl)cc4)CC3)cc2)cc1S(=O)(=O)C(F)(F)F [AZD4320] + C[C@@H]1COCCN1C2=NC(=NC(=C2)C3(CC3)[S@](=N)(=O)C)C4=C5C=CNC5=NC=C4 [AZD6738] (first compound max 1 µM, 7x7, partner max 10 µM)", 0],
  ["N#Cc1cnc(Nc2cc(NC[C@H]3CNCCO3)c(C(F)(F)F)cn2)cn1 [SRA737] + CCc1c2c(nc3ccc(O)cc13)-c1cc3c(c(=O)n1C2)COC(=O)[C@]3(O)CC [SN-38] (first compound max 10 µM, 7x7, partner max 0.3 µM)", 0]
]}

Sourced from the supplement of paper PMC11061612
